- protocol text: Apparent clearance with respect to bioavailability in human after fat meal using non-compartmental analysis
- Format: ADME, organism-based
- condition info: in vivo
readout name: CL/F
Answer with the value and then the unit.

Quick one: CL/F of Clc1ccc2c(N3CCN(CCCN4CCN(c5ccnc6cc(Cl)ccc56)CC4)CC3)ccnc2c1 ?
10 mL/min/kg

----------
- protocol text: AUC (0 to 42 days) in Paua New Guinean children with uncomplicated malaria at 20 mg/kg daily for 3 days
- Type: ADME, organism-based
- Design: time < 1008 hr, dose 20 mg/kg
- condition info: human, plasma
readout name: AUC at 1008 h (µM·h)
Kindly provide the numeric value in µM·h only, without the unit symbol.

Quick one: AUC at 1008 h of Clc1ccc2c(N3CCN(CCCN4CCN(c5ccnc6cc(Cl)ccc56)CC4)CC3)ccnc2c1 ?
76.4

----------
- protocol text: Volume of distribution at steady state with respect to bioavailability in Paua New Guinean children with uncomplicated malaria at 20 mg/kg daily for 3 days
- Format: ADME, organism-based
- condition info: human, in vivo, read-out: Vc/F
readout name: Vd/F (L/kg)
Kindly provide the numeric value in L/kg only, without the unit symbol.

Quick one: Vd/F of Clc1ccc2c(N3CCN(CCCN4CCN(c5ccnc6cc(Cl)ccc56)CC4)CC3)ccnc2c1 [PIPERAQUINE] ?
431

----------
- protocol text: Elimination half life in Paua New Guinean children with uncomplicated malaria at 10 mg/kg daily for 3 days
- Assay type: ADME, organism-based
- Parameters: dose 10 mg/kg
- condition info: human, in vivo, read-out: beta t1/2 (converted)
readout name: half-life (days)
Kindly provide the numeric value in days only, without the unit symbol.

Quick one: half-life of CCN(CC)CCCC(C)Nc1ccnc2cc(Cl)ccc12 (stereo unspecified) [CHLOROQUINE] ?
9.71

----------
- protocol text: Elimination half life in Paua New Guinean children with uncomplicated malaria at 20 mg/kg daily for 3 days
- Format: ADME, organism-based
- Parameters: dose 20 mg/kg
- condition info: human, in vivo, read-out: beta t1/2 (converted)
readout name: half-life (days)
Kindly provide the numeric value in days only, without the unit symbol.

Quick one: half-life of Clc1ccc2c(N3CCN(CCCN4CCN(c5ccnc6cc(Cl)ccc56)CC4)CC3)ccnc2c1 ?
17.2

----------
- protocol text: AUC (0 to 42 days) in Paua New Guinean children with uncomplicated malaria
- Format: ADME, organism-based
- Set-up: time < 1008 hr
- condition info: human, plasma
readout name: AUC(0-t) at 1008 h (µM·h)
Kindly provide the numeric value in µM·h only, without the unit symbol.

Quick one: AUC(0-t) at 1008 h of CCNCCCC(C)Nc1ccnc2cc(Cl)ccc12 (stereo unspecified) [DESETHYLCHLOROQUINE] ?
83.6

----------
- protocol text: Volume of distribution at steady state with respect to bioavailability in Vietnamese human
- Assay type: ADME, organism-based
- condition info: in vivo, read-out: Vc/F
readout name: Vd/F (L/kg)
Kindly provide the numeric value in L/kg only, without the unit symbol.

Quick one: Vd/F of Clc1ccc2c(N3CCN(CCCN4CCN(c5ccnc6cc(Cl)ccc56)CC4)CC3)ccnc2c1 ?
103

----------
- protocol text: Apparent clearance with respect to bioavailability in human after fasting using non-compartmental analysis
- Type: ADME, organism-based
- condition info: in vivo
readout name: CL/F

Quick one: CL/F of Clc1ccc2c(N3CCN(CCCN4CCN(c5ccnc6cc(Cl)ccc56)CC4)CC3)ccnc2c1 ?
19 mL/min/kg
